target: RNA demethylase ALKBH5 (Homo sapiens, UniProt Q6P6C2, R277A/Y139A); assay: Binding affinity to NT-647-NHS fluorescent dye-labeled ALKBH5 Y139A/R277A mutant (unknown origin) expressed in Escherichia coli BL21(DE3) using m6A-ssDNA as substrate assessed as dissociation constant incubated for 15 mins by MST assay
Sequence (Q6P6C2 2-394 Y139A/R277A limits assumed): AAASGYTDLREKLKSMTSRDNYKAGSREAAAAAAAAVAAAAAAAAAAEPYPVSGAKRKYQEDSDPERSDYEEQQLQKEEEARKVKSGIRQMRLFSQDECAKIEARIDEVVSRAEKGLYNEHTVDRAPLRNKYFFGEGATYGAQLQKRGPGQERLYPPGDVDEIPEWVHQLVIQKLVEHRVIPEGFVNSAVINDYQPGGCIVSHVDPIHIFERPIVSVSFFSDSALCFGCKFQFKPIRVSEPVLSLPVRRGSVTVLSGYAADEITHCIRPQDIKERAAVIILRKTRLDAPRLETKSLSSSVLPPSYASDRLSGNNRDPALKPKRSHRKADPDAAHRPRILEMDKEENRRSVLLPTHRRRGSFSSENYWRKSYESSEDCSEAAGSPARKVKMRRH
pKd: −log10 of the molar value.
ENDPOINT NAME: pKd

>>> endpoint_value("O=C(OCc1ccc(C(F)(F)F)cc1)c1ccc(-c2cc3ncc(C(=O)c4c(O)ccc([N+](=O)[O-])c4O)cn3n2)cc1")
4.80

---

experiment: Tmax in Sprague-Dawley rat at 10 mg/kg, po measured for 1 to 1440 mins by LC-MS/MS analysis; assay type: ADME, organism-based; details: in vivo, time 1-1440 min
ENDPOINT NAME: Tmax (min)

>>> endpoint_value("O=C(OCc1ccc(C(F)(F)F)cc1)c1ccc(-c2cc3ncc(C(=O)c4c(O)ccc([N+](=O)[O-])c4O)cn3n2)cc1")
30

---

test: Oral bioavailability in Sprague-Dawley rat at 10 mg/kg measured for 1 to 1440 mins by LC-MS/MS analysis; assay type: ADME, organism-based; conditions: in vivo, time 1-1440 min
ENDPOINT NAME: bioavailability

>>> endpoint_value("O=C(OCc1ccc(C(F)(F)F)cc1)c1ccc(-c2cc3ncc(C(=O)c4c(O)ccc([N+](=O)[O-])c4O)cn3n2)cc1")
"17.3%"

---

target: RNA demethylase ALKBH5 (Homo sapiens, UniProt Q6P6C2); experiment: Inhibition of ALKBH5 (66 to 292 residues)(unknown origin) expressed in Escherichia coli BL21(DE3) using 5'-ATTGTCA(m6A)CAGCAGA-FAM-3' as substrate incubated for 30 mins by FP assay
Sequence (Q6P6C2 whole entry, the tested form may be a part): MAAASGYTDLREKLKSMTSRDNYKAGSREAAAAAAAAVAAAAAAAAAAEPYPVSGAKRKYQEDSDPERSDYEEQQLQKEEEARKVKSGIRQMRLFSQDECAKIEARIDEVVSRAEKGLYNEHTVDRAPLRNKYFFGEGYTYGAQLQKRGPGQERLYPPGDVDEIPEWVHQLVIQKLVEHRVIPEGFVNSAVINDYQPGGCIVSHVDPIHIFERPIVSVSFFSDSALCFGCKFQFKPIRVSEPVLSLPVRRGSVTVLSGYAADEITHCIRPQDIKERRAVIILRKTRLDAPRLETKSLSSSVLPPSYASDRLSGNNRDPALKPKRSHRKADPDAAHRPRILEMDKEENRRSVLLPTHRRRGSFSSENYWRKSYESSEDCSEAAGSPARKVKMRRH
pIC50: −log10 of the molar value.
// pIC50 lookup, one value per entry
ENDPOINT NAME: pIC50

>>> endpoint_value("O=C(c1cnc2cc(-c3ccc(Cl)cc3)nn2c1)c1c(O)ccc([N+](=O)[O-])c1O")
4.84
>>> endpoint_value("O=C(O)c1ccc(-c2cc3ncc(C(=O)c4cc([N+](=O)[O-])ccc4O)cn3n2)cc1")
4.25
>>> endpoint_value("O=C(c1cnc2cc(-c3ccccc3Cl)nn2c1)c1cc([N+](=O)[O-])ccc1O")
3.99
>>> endpoint_value("O=C(OCc1ccccc1)c1ccc(-c2cc3ncc(C(=O)c4cc([N+](=O)[O-])ccc4O)cn3n2)cc1")
5.10
>>> endpoint_value("O=C(OCc1ccc(C(F)(F)F)cc1)c1ccc(-c2cc3ncc(C(=O)c4cc([N+](=O)[O-])ccc4O)cn3n2)cc1")
5.33
>>> endpoint_value("O=C(c1cnc2cc(-c3ccc(C(F)(F)F)cc3)nn2c1)c1cc([N+](=O)[O-])ccc1O")
4.63
>>> endpoint_value("Cc1ccc(COC(=O)c2ccc(-c3cc4ncc(C(=O)c5cc([N+](=O)[O-])ccc5O)cn4n3)cc2)cc1")
4.39
>>> endpoint_value("O=C(c1cnc2cc(-c3ccc(Cl)cc3)nn2c1)c1cccc([N+](=O)[O-])c1O")
4.20
>>> endpoint_value("O=C(c1cnc2cc(-c3ccc(Cl)cc3)nn2c1)c1cc([N+](=O)[O-])ccc1O")
4.81
>>> endpoint_value("O=C(O)c1ccc(O)c(C(=O)c2cnc3cc(-c4ccc(Cl)cc4)nn3c2)c1")
3.85
>>> endpoint_value("COC(=O)c1ccc(-c2cc3ncc(C(=O)c4cc([N+](=O)[O-])ccc4O)cn3n2)cc1")
5.04
>>> endpoint_value("O=C(O)c1ccnc(C(=O)NS(=O)(=O)c2ccccc2)c1")
4.17
>>> endpoint_value("O=C(c1cnc2cc(-c3ccccc3)nn2c1)c1cc([N+](=O)[O-])ccc1O")
4.35
>>> endpoint_value("O=C(c1cnc2cc(-c3cccc(Cl)c3)nn2c1)c1cc([N+](=O)[O-])ccc1O")
4.61
>>> endpoint_value("O=C(OCc1ccc(C(F)(F)F)cc1)c1ccc(-c2cc3ncc(C(=O)c4c(O)ccc([N+](=O)[O-])c4O)cn3n2)cc1")
5.53
>>> endpoint_value("O=C(c1cnc2cc(-c3ccc(O)cc3)nn2c1)c1cc([N+](=O)[O-])ccc1O")
4.33
>>> endpoint_value("O=C(OCc1ccc(Cl)cc1)c1ccc(-c2cc3ncc(C(=O)c4cc([N+](=O)[O-])ccc4O)cn3n2)cc1")
4.97

---

experiment: Cmax in Sprague-Dawley rat at 10 mg/kg, po measured for 1 to 1440 mins by LC-MS/MS analysis; assay type: ADME, organism-based; settings: in vivo
ENDPOINT NAME: Cmax

>>> endpoint_value("O=C(OCc1ccc(C(F)(F)F)cc1)c1ccc(-c2cc3ncc(C(=O)c4c(O)ccc([N+](=O)[O-])c4O)cn3n2)cc1")
"2340 ng/mL"

---

target: RNA demethylase ALKBH5 (Homo sapiens, UniProt Q6P6C2); assay: Inhibition of ALKBH5 (66 to 292 residues)(unknown origin) expressed in Escherichia coli BL21(DE3) using 5'-ATTGTCA(m6A)CAGCAGA-FAM-3' as substrate incubated for 30 mins by FP assay
ENDPOINT NAME: IC50

>>> endpoint_value("COc1ccc([N+](=O)[O-])cc1C(=O)c1cnc2cc(-c3ccc(Cl)cc3)nn2c1")
"> 200 µM"
>>> endpoint_value("O=C(c1cnc2cc(-c3ccc(Cl)cc3)nn2c1)c1ccccc1O")
"> 200 µM"
>>> endpoint_value("O=C(c1cnc2cc(-c3ccc(Cl)cc3)nn2c1)c1cc(C(F)(F)F)ccc1O")
"> 200 µM"
>>> endpoint_value("Cc1ccc(-c2cc3ncc(C(=O)c4cc([N+](=O)[O-])ccc4O)cn3n2)cc1")
"> 200 µM"

These measurements were taken from ChEMBL document CHEMBL5375956.
